- target or system: T1, recombinant human TIGIT (human, UniProt Q495A1 22-141, limits assumed)
- T1 construct: recombinant human TIGIT used in Carterra SPR; also called hTIGIT
- T1 sequence (looked up): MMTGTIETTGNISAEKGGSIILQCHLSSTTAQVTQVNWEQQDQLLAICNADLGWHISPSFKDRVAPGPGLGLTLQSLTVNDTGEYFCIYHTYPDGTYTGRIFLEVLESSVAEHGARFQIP
- experimental protocol: SPR Carterra, average
What kon was measured for each of the following?
# number only, unit M⁻¹ s⁻¹ dropped from output

Look up kon: TIGIT-SC104 (Fc fusion, VHH-Fc fusion in assay) VHH: EVQLVESGGGLVQPGGSLRLSCAASGFTFSTYTMGWFRQAPGKEREFVAAISPSGNTYYADSVKGRFTISADNSKNTAYLQMNSLKPEDTAVYYCARWGGITFGGVYPLDYWGQGTLVTVSS 247000

Look up kon: TIGIT-SC70 (Fc fusion, VHH-Fc fusion in assay) VHH: EVQLVESGGGLVQPGGSLRLSCAASGRTFSSFAMGWFRQAPGKEREFVAAISGSGEDTYYADSVKGRFTISADNSKNTAYLQMNSLKPEDTAVYYCARWRLDRRQGFYYAMDVWGQGTLVTVSS 321000

Look up kon: TIGIT-SC12 (Fc fusion, VHH-Fc fusion in assay) VHH: EVQLVESGGGLVQPGGSLRLSCAASGRTFSAYGMGWFRQAPGKEREFVAAITPSSRTTYYADSVKGRFTISADNSKNTAYLQMNSLKPEDTAVYYCAKDNWGEWLMPWWGQGTLVTVSS 221000

Look up kon: TIGIT-SC86 (Fc fusion, VHH-Fc fusion in assay) VHH: EVQLVESGGGLVQPGGSLRLSCAASGIIASDSAMGWFRQAPGKEREFVAAIRWSGKETWYADSVKGRFTISADNSKNTAYLQMNSLKPEDTAVYYCARWGGVTFGGVYPLEYWGQGTLVTVSS 341000

Look up kon: TIGIT-SC160 (Fc fusion, VHH-Fc fusion in assay) VHH: EVQLVESGGGLVQPGGSLRLSCAASGNTFSGGFMGWFRQAPGKEREWVASVLRGGYTWYADSVKGRFTISADNSKNTAYLQMNSLKPEDTAVYYCAREGRSSSPWFDPWGQGTLVTVSS 105000

Look up kon: TIGIT-SC128 (Fc fusion, VHH-Fc fusion in assay) VHH: EVQLVESGGGLVQPGGSLRLSCAASGFIGNYHAMGWFRQAPGKEREFVARITSGGSTYYADSVKGRFTISADNSKNTAYLQMNSLKPEDTAVYYCGGFGNWGQGTLVTVSS 158000

Look up kon: TIGIT-SC22 (Fc fusion, VHH-Fc fusion in assay) VHH: EVQLVESGGGLVQPGGSLRLSCAASGFTLENNMMGWFRQAPGKEREMVAAISWSGGSALYADSVKGRFTISADNSKNTAYLQMNSLKPEDTAVYYCARGDGYSYGNFDYWGQGTLVTVSS 70300

Look up kon: TIGIT-SC60 (Fc fusion, VHH-Fc fusion in assay) VHH: EVQLVESGGGLVQPGGSLRLSCAASGFTFSPSWMGWFRQAPGKEREWVASVLRGGYTWYADSVKGRFTISADNSKNTAYLQMNSLKPEDTAVYYCARDDLDYWGQGTLVTVSS 21800

Look up kon: TIGIT-SC148 (Fc fusion, VHH-Fc fusion in assay) VHH: EVQLVESGGGLVQPGGSLRLSCAASGDIGSINAMGWFRQAPGKEREFVAGIWRSGNLKAYADSVKGRFTISADNSKNTAYLQMSSLKPEDTAVYYCARGNIVVVPAAFVIWFDPWGQGTLVTVSS 121000

Look up kon: TIGIT-SC81 (Fc fusion, VHH-Fc fusion in assay) VHH: EVQLVESGGGLVQPGGSLRLSCAASGRSFKDDAMGWFRQAPGKEREFVAAISWSGDSTHYADSVKGRFTISADNSKNTAYLQMNSLKPEDTAVYYCARWVWASGTYWIDYWGQGTLVTVSS 169000

Look up kon: TIGIT-SC96 (Fc fusion, VHH-Fc fusion in assay) VHH: EVQLVESGGGLVQPGGSLRLSCAASGMTTIGPMGWFRQAPGKEREFVAAINWSGSSTVYADSVKGRFTISADNSKNTAYLQMNSLKPEDTAVYYCVTYSAYDFRNAWGQGTLVTVSS 166000

Look up kon: TIGIT-SC117 (Fc fusion, VHH-Fc fusion in assay) VHH: EVQLVESGGGLVQPGGSLRLSCAASGNTFSGGFMGWFRQAPGKEREWVASVLRGGYTWYADSVKGRFTISADNSKNTAYLQMNSLKPEDTAVYYCDAADYWGQGTLVTVSS 125000

Look up kon: TIGIT-SC183 (Fc fusion, VHH-Fc fusion in assay) VHH: EVQLVESGGGLVQPGGSLRLSCAASGFAFGDSWMGWFRQAPGKEREWVASVLRGGYTWYADSVKGRFTISADNSKNTAYLQMNSLKPEDTAVYYCAKDRSYSFDYWGQGTLVTVSS 90400

Look up kon: TIGIT-SC207 (Fc fusion, VHH-Fc fusion in assay) VHH: EVQLVESGGGLVQPGGSLRLSCAASGFAFSSYVMGWFRQAPGKEREFVAAIWRSGTLKAYADSVKGRFTISADNSKNTEYLQMNSLKPEDTAVYYCARDDYGDTRRYFQHWGQGTLVTVSS 528000

Look up kon: TIGIT-SC14 (Fc fusion, VHH-Fc fusion in assay) VHH: EVQLVESGGGLVQPGGSLRLSCAASGSISSIHAMGWFRQAPGKEREFVATISRSGVGTFYADSVKGRFTISADNSKNTAYLQMNSLKPEDTAVYYCASSYSSSSGLGDIWGQGTLVTVSS 1.95e+06
